# tested-target: Phospholipase D1 (Homo sapiens) (UniProt Q13393)
# Sequence (Q13393 whole entry, looked up): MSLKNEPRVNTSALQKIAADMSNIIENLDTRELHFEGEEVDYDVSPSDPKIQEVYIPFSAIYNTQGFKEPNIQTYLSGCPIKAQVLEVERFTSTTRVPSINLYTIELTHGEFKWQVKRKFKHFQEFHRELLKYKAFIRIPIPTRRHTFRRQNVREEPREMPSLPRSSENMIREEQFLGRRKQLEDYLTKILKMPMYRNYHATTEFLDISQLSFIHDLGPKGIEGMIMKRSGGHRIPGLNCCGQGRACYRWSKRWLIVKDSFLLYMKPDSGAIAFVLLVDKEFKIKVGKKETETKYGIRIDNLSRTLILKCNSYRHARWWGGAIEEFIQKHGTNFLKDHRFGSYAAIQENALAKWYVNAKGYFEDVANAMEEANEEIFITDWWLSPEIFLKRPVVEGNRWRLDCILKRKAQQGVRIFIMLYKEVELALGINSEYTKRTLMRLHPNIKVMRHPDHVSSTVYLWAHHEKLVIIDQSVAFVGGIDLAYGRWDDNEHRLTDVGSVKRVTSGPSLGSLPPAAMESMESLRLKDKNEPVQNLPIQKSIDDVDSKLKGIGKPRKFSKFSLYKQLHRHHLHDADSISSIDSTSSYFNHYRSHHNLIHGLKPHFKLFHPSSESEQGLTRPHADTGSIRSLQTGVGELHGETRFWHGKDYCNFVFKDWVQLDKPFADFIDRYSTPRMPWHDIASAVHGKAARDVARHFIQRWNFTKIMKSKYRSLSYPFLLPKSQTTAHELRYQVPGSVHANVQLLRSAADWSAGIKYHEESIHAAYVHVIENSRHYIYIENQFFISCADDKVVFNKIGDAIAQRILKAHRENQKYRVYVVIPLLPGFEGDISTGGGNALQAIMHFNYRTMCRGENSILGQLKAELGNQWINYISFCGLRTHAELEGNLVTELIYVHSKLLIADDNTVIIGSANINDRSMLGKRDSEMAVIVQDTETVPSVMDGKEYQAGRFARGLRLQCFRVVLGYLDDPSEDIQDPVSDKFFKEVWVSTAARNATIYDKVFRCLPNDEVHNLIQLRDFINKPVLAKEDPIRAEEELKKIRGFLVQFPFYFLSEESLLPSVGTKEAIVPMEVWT
# Sequence (Q13393 whole entry, looked up): as above
# assay-notes: PLD1 inhibitors in cells, Calu-1 cells, single concentration (AID 602144);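 also: tested at 200 nM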
# conditions: cellular PLD1 activity, hits give low values
measurement-name: remaining activity (%)
Value expressed in %; do not type the unit.

>  <molecule>
O=C(NCCN1CCC2(C=Cc3ccccc32)CC1)[C@H]1C[C@@H]1c1ccccc1

>  <result>
107

$$$$
>  <molecule>
O=C(NCCN1CCC(n2c(=O)[nH]c3ccccc32)CC1)c1cc2ccccc2c2c1ccc1ccccc12

>  <result>
102

$$$$
>  <molecule>
Cc1ccc(C(=O)NCCN2CCN(c3ncccn3)CC2)cc1

>  <result>
84.2

$$$$

Need remaining activity, item O=C(c1ccc(Cl)cc1)N(CCN1CCC(n2c(=O)[nH]c3ccccc32)CC1)C(=O)c1ccc(Cl)cc1
63.9

Need remaining activity, item COc1cccc(N2CCN(CCNC(=O)c3ccc(C(F)(F)F)cc3)CC2)c1
102

Need remaining activity, item O=C(c1ccc(Cl)cc1)N1CCC(n2c(=O)[nH]c3cc(Cl)ccc32)CC1
79.2

Need remaining activity, item C[C@@H](CN1CCC(c2nc3ccccc3[nH]2)CC1)NC(=O)c1ccc2ccccc2c1
58.7

Need remaining activity, item O=C(NCCN1CCN(c2ccncc2)CC1)c1ccc2ccccc2c1
139

Need remaining activity, item C[C@@H](CN1CCC(n2c(=O)[nH]c3cc(-c4cccnc4)ccc32)CC1)NC(=O)[C@H]1C[C@@H]1c1ccccc1
53.2
